Provide the reported polymerase ribozyme fitness (log ratio) of each item.
B1: TPR 5TU (parent)
chain: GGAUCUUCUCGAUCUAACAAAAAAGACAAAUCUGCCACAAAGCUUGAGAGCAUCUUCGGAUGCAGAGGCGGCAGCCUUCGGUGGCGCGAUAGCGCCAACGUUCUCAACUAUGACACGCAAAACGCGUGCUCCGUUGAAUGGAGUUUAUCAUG

# Variants of: B1
# procedure summary: polymerase ribozyme fitness, log enrichment relative to wild type (log ratio); higher = more active; in vitro selection for triplet polymerase activity
Variants at the floor of the assay were thinned out.

Some solved entries appear below for comparison.
mutation notation: A22C A28U C105U C123U
test value: ≤ -4.2

mutation notation: A26U G46U G58A A73U C85G U111G A150U
test value: ≤ -4.2

Provide reported polymerase ribozyme fitness (log ratio) for each item, in the same order as listed.
1. G25A U33A G83C A91U G94A A121U C131U
2. A26G C75U C96U
3. C51U G65C C87U
4. C10G C36G A47U G65U C79G C93U C99G G126C U144C U148C
5. A21U C32G C85A

Solution:
≤ -4.2
≤ -4.2
≤ -4.2
≤ -4.2
≤ -4.2
